result_type: IC50

# query: IC50 | item C[C@@H]1Cc2c([nH]c3ccccc23)[C@@H](c2cnc(N3CCC(N4CCN(c5ccc(NC6CCC(=O)NC6=O)cc5F)CC4)CC3)nc2)N1CC(C)(C)F (stereo partly specified) | system: DNA damage-binding protein 1/Protein cereblon (Homo sapiens, UniProt Q96SW2)
500 to 5000 nM

The origin of these recorded values is BindingDB's records for patent US20260007681.
